Test system: CAKI-1 renal
Assay: NCI-60 one-dose screen, 48 h (100 = growth as untreated, 0 = no growth, -100 = all killed)
Conditions: 10 µM unless noted
The panel holds about 83,000 compounds, 20% with a hit somewhere; the sample as a whole holds those more often. Active and inactive are the calls of the source. Rule for the calls: active = growth percent below 10; inactive = the rest.
This listing pairs compounds with measured growth.

COc1ccc2nc(Nc3cccc(NC(=O)c4ccc(CN5CCCN(C)CC5)c(C(F)(F)F)c4)c3)ccc2c1	-65.2% (active)

Q: Quickly give me recorded growth for COc1ccc(C(=O)/C=C/c2ccc(Cl)c(Cl)c2)cc1S(N)(=O)=O
A: -7.4% (active)

Q: Quickly give me recorded growth for CC(C)c1ccc2c(N)c(C(=O)Nc3ccc(C(F)(F)F)cn3)sc2n1
A: 55.2% (inactive)

Q: Quickly give me recorded growth for COc1ccc(NC(=O)Cn2c(/C=C/c3cccc([N+](=O)[O-])c3)nc3ccccc3c2=O)cc1
A: 49.9% (inactive)

Q: Quickly give me recorded growth for Cn1cc(-c2cc(N)n3nc(-c4cn(C)c5ccccc45)cc3n2)c2cc(Cl)ccc21
A: -82.5% (active)

Q: Quickly give me recorded growth for CC(=O)Oc1ccccc1C(=O)[Se]C(=NC1CCCCC1)NC1CCCCC1
A: -97.7% (active)

Q: Quickly give me recorded growth for COc1cc(-c2ccc(/C=N/NC(=O)c3[nH]c4ccc(Br)cc4c3-c3ccccc3)o2)cc(OC)c1OC
A: 74.5% (inactive)
